- targetSystem: PI3kα (Homo sapiens, UniProt P42336)
- Sequence (P42336 whole entry, one chain of several): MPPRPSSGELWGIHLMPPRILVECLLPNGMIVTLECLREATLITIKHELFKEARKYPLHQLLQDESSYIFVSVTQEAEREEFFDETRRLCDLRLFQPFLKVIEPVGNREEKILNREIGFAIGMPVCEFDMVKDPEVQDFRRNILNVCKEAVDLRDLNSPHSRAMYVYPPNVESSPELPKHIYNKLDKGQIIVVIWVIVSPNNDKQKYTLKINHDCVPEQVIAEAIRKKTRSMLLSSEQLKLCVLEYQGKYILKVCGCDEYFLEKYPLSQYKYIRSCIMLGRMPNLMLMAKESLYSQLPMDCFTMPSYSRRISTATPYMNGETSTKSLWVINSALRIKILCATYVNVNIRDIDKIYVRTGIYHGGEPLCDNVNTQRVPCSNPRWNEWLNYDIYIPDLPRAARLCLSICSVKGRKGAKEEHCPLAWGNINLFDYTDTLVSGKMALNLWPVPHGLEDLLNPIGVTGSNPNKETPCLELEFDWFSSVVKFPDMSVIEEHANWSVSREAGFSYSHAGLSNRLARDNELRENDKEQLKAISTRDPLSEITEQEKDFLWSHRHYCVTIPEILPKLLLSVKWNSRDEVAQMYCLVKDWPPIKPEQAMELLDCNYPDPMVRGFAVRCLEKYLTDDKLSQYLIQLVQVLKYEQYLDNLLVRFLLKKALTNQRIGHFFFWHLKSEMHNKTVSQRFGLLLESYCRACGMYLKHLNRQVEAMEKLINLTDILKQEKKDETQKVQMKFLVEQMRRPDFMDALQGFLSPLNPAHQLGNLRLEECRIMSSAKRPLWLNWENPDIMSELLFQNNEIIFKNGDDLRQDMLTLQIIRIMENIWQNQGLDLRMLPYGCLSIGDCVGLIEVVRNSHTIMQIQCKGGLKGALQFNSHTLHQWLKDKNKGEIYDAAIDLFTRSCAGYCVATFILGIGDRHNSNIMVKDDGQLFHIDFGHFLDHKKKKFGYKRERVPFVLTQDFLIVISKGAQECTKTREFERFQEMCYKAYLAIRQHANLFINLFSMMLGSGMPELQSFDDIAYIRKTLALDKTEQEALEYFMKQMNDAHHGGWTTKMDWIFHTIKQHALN
- assayRemarks: Fluorescent (HTRF) determination of PI3 kinase enzyme activity, PI3Kα
- Assay type: biochemical
- conditionDetails: 1 uM
observationType: % inhibition (PI3kα) 1 uM

// below: answered compounds
Cc1cc(-c2nn(C(C)c3oc4cccc(F)c4c(=O)c3-c3cccc(F)c3)c3ncnc(N)c23)ccc1OC(C)C (single isomer, unassigned; (-)) [Example 115]: C (C=>25 to 50%)
CC(c1oc2cccc(F)c2c(=O)c1-c1ccccc1)n1nc(-c2ccc(OC(F)F)c(F)c2)c2c(N)ncnc21 (stereo not drawn) [Example 32]: D (D=0 to 25%)
CC(c1oc2cccc(F)c2c(=O)c1-c1cccc(F)c1)n1nc(-c2ccc(N3CCOCC3)c(Cl)c2)c2c(N)ncnc21 (racemic) [Example 126]: D (D=0 to 25%)
CC(C)Oc1ccc(-c2nn(C(C)c3oc4cccc(F)c4c(=O)c3-c3ccc(F)cc3)c3ncnc(N)c23)cc1F (stereo not drawn) [Example 12]: D (D=0 to 25%)

Next compound, please.
input: Consider the compound CC(c1oc2cccc(F)c2c(=O)c1-c1ccccc1)n1nc(-c2ccc(OC(F)F)c(F)c2)c2c(N)ncnc21 (racemic) [Example 102] and give its recorded % inhibition (PI3kα) 1 uM.
output: C (C=>25 to 50%)

* * *

- targetSystem: PI3kα (Homo sapiens)
- assayRemarks: Fluorescent (HTRF) determination of PI3 kinase enzyme activity, PI3Kα
- Format: biochemical
- conditionDetails: numeric values
observationType: IC50

// below: answered compounds
CC(C)Oc1ccc(-c2nn(C(C)c3oc4cccc(F)c4c(=O)c3-c3cccc(F)c3)c3ncnc(N)c23)cc1F (stereo not drawn): > 10000 nM
Nc1ncnc2c1c(-c1cc(O)cc(F)c1)nn2Cc1oc2cccc(F)c2c(=O)c1-c1cccc(F)c1: > 10000 nM

Next compound, please.
input: Consider the compound CC(c1oc2cccc(F)c2c(=O)c1-c1cccc(F)c1)n1nc(-c2ccc(N3CCOCC3)c(F)c2)c2c(N)ncnc21 (single isomer, unassigned) and give its recorded IC50.
output: > 10000 nM

* * *

Reported inhibition at 1 µM is given for each of the following compounds.
- targetSystem: PI3kβ (Homo sapiens, UniProt P42338)
- Sequence (P42338 whole entry): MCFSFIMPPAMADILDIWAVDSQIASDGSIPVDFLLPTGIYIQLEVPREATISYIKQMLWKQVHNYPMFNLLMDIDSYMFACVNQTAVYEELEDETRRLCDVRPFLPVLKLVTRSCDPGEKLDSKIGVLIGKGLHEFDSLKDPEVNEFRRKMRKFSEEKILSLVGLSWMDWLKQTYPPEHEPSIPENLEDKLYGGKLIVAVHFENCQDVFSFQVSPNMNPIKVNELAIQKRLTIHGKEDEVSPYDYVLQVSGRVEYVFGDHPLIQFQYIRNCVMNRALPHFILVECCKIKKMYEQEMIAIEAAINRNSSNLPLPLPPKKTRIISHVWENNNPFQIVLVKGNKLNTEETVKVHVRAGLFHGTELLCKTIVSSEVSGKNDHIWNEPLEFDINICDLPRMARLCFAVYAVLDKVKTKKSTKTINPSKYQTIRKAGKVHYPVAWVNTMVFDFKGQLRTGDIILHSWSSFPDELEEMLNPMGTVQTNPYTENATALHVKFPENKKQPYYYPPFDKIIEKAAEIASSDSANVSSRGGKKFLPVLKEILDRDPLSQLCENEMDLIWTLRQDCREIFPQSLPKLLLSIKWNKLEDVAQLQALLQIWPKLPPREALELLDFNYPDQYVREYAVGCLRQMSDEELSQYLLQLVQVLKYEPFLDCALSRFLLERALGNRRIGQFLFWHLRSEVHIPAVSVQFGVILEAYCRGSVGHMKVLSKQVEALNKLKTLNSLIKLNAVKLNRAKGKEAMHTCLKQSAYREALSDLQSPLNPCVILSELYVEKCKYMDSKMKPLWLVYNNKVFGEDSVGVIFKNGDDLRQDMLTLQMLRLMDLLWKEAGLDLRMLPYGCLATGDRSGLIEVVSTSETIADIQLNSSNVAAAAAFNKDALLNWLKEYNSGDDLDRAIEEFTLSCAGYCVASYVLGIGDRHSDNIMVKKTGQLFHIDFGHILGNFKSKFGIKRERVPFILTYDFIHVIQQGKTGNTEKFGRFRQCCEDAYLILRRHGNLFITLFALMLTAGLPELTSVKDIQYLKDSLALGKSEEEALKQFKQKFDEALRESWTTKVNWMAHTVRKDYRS
- Sequence (P27986 whole entry partner): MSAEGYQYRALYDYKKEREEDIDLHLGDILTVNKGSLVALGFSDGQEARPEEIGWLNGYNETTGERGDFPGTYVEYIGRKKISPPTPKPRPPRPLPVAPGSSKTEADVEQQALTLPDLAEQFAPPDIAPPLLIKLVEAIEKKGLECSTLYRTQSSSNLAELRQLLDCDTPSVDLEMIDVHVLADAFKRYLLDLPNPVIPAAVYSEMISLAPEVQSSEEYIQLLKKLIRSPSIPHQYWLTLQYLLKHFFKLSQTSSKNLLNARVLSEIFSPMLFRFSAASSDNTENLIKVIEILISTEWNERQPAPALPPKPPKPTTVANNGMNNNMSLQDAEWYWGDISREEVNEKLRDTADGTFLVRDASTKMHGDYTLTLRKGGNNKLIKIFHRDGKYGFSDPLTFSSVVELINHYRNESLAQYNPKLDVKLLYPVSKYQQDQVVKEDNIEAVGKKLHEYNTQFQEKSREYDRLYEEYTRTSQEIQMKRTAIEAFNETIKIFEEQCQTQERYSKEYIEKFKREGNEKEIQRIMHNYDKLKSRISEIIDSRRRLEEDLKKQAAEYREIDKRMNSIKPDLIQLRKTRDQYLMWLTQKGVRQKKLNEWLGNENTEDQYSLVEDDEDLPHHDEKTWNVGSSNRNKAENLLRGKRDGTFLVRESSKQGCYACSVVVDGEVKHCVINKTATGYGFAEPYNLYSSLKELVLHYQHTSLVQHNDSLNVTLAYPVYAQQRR
- assayRemarks: Fluorescent (HTRF) determination of PI3 kinase enzyme activity, PI3Kβ
- Type: biochemical
- conditionDetails: 1 uM

// below: answered compounds
CC(C)Oc1ccc(-c2nn(C(C)c3oc4cccc(F)c4c(=O)c3-c3cccc(F)c3)c3ncnc(N)c23)cc1F (centres unmarked) [Example 6]: 25 to 50%
CCC(c1oc2cccc(F)c2c(=O)c1-c1cccc(F)c1)n1nc(-c2ccc(OC(C)C)c(F)c2)c2c(N)ncnc21 (centres unmarked): 50 to 75%
CC(c1oc2cccc(F)c2c(=O)c1-c1cccc(F)c1)n1nc(-c2ccc(N3CCN(C)CC3)c(F)c2)c2c(N)ncnc21 (centres unmarked): 25 to 50%
Cc1nn(C(C)c2oc3cccc(F)c3c(=O)c2-c2cccc(F)c2)c2ncnc(N)c12 (centres unmarked): 25 to 50%
Cc1n[nH]c2cc(-c3nn([C@@H](C)c4oc5cccc(F)c5c(=O)c4-c4cccc(F)c4)c4ncnc(N)c34)ccc12: 25 to 50%

input: Fetch value of inhibition at 1 µM on PI3kβ (Homo sapiens, UniProt P42338) for CC(c1oc2cccc(F)c2c(=O)c1-c1cccc(F)c1)n1ncc2c(N)ncnc21 (centres unmarked) .
output: 0 to 25%

input: Fetch value of inhibition at 1 µM on PI3kβ (Homo sapiens, UniProt P42338) for CC(c1oc2cccc(F)c2c(=O)c1-c1cccc(F)c1)n1nc(-c2cc3ccccc3s2)c2c(N)ncnc21 (centres unmarked) .
output: 50 to 75%

input: Fetch value of inhibition at 1 µM on PI3kβ (Homo sapiens, UniProt P42338) for CC(c1oc2cccc(F)c2c(=O)c1-c1cccc(F)c1)n1nc(-c2ccc(-c3nnc(N)s3)cc2)c2c(N)ncnc21 (centres unmarked) .
output: 50 to 75%

input: Fetch value of inhibition at 1 µM on PI3kβ (Homo sapiens, UniProt P42338) for CC(c1oc2cccc(F)c2c(=O)c1-c1ccc(F)cc1)n1cnc2c(N)nc(F)nc21 (centres unmarked) .
output: 25 to 50%

input: Fetch value of inhibition at 1 µM on PI3kβ (Homo sapiens, UniProt P42338) for CC(C)Oc1ccc(-c2nn(C(C)c3oc4cccc(F)c4c(=O)c3-c3cccc(F)c3)c3ncnc(N4CCOCC4)c23)cc1F (centres unmarked) .
output: 25 to 50%

input: Fetch value of inhibition at 1 µM on PI3kβ (Homo sapiens, UniProt P42338) for CC(c1oc2cccc(F)c2c(=O)c1-c1cccc(F)c1)n1cnc2c(N)ncnc21 (centres unmarked) .
output: 50 to 75%

input: Fetch value of inhibition at 1 µM on PI3kβ (Homo sapiens, UniProt P42338) for CC(C)C(=O)Nc1ccc(-c2nn(C(C)c3oc4cccc(F)c4c(=O)c3-c3cccc(F)c3)c3ncnc(N)c23)cc1 (centres unmarked) .
output: 25 to 50%

input: Fetch value of inhibition at 1 µM on PI3kβ (Homo sapiens, UniProt P42338) for CC(c1oc2cccc(F)c2c(=O)c1-c1cccc(F)c1)n1nc(-c2ccc(CNC(=O)OC(C)(C)C)o2)c2c(N)ncnc21 (centres unmarked) .
output: 25 to 50%

input: Fetch value of inhibition at 1 µM on PI3kβ (Homo sapiens, UniProt P42338) for Cc1c2ccc(-c3nn(C(C)c4oc5cccc(F)c5c(=O)c4-c4cccc(F)c4)c4ncnc(N)c34)cc2nn1C (centres unmarked) .
output: 25 to 50%

Origin of values: patent US11020399B2
